Source: paper PMC12376128

# test: Metabolite identification in rat plasma, urine, feces and bile
# Assay type: in vivo, SD rats
# condition_parameters: oral 6 mg/kg BPI-460372, average of male and female pooled samples
Threshold 7%: Relative abundance of MS peak areas, Rat Urine 0-48 h strictly smaller gives yes (1), otherwise no (0).

Worked set:
O=c1n(-c2ccc(C(F)(F)F)cc2)c2nccnc2n1C1CN(C(O)C(O)CO)C1 (centres unmarked); yes (1)
CC(=O)NC(CSCCC(=O)N1CC(n2c(=O)n(-c3ccc(C(F)(F)F)cc3)c3cncnc32)C1)C(=O)O (centres unmarked); yes (1)
CSCC(O)C(=O)N1CC(n2c(=O)n(-c3ccc(C(F)(F)F)cc3)c3nccnc32)C1 (centres unmarked); no (0)

## Input Is the reported Relative abundance of MS peak areas, Rat Urine 0-48 h for CC(=O)NC(CSCC(F)C(=O)N1CC(n2c(=O)n(-c3ccc(C(F)(F)F)cc3)c3nccnc32)C1)C(=O)O (centres unmarked) strictly below 7%?
## Output no (0)

## Input Is the reported Relative abundance of MS peak areas, Rat Urine 0-48 h for C=CC(=O)N1CC(n2c(=O)n(-c3ccc(C(F)(F)F)cc3)c3nccnc32)C1 strictly below 7%?
## Output yes (1)
